Test: Lethal dose determination, intravenous, mortality within 30 days
Conditions: in vivo, DMCRYP salt×NaBr (x=2.5-8) as prepared according to Example I
quantity: LD50 at 720 h (µmol/kg)
Return type: number; implicit unit µmol/kg.

Incoming: If you can, please state the reported LD50 at 720 h value of "O=C(O)C(C(=O)O)N1CCOCCOCCN(C(C(=O)O)C(=O)O)CCOCCOCC1" .
Outgoing: 1050
